Tested on: MS2 coat protein
Assay: apparent KD of MS2 coat protein, switch OFF state (with FMN for OFF switches, without FMN for ON switches); designed switch direction (-1 OFF switch, 1 ON switch): -1; higher = weaker reporter binding
Conditions: FMN input: 0 or 200 uM; Eterna round: R93 (includes R88 designs)
Lab note: anything with apparent KD of MS2 coat protein at or over 0.04 µM counts as Criterion met; the rest go in Criterion not met.

seq_text="AAGAGUAGAGGAUAUACAAAGGGAGAGUCGAAAGACUCAAAACAUGAGGAUCACCCAUGUAGAAGGCUACUCAA [Hyphema Seclusion Mod 62% 7]" label_class="Criterion met"
seq_text="AAAAAUGGAGGAUAUACAUGAGGAUCACCCAUGUGUAACUAUACAAAACACAAAAAAAGUAGAAGGCCAAAAAA [Gilly Gone Silly 7 - Jieux - Exclusion 3]" label_class="Criterion not met"
seq_text="GAAUGACUAGGAUAUACAUGAGGAUCACCCAUGUGUAUAAAUAAAUACACAAAAGAAAGUAGAAGGAGUCAAAG [Mat - Exclusion 3 - Mayanna mod - D124]" label_class="Criterion met"
seq_text="UAAAGACAUGAGGAUCACCCAUGUGAGGAUAUCGGAGAUAACGGAACAUCAAGUUCGGCGAGAAGGCGCAGGAA [JR_Exc001_Sub405]" label_class="Criterion not met"
seq_text="AUAAACUGAGGAUAUACAUGAGGAUCACCCAUGUAAAAAAAAAAAUGAUCCUCAAAAAGUAGAAGGCAGAAUAA [JR_Exc003_Sub016]" label_class="Criterion not met"
seq_text="AAAAGACAUGAGGAUCACCCAUGUGAGGAUAUGACGUAAAUAAAGAAAGAAGAAAUCGUCAGAAGGCACACCUA [55%, Disencluded 2, 1]" label_class="Criterion met"
seq_text="GUAGUGUGAGGAUAUGGAAAGAAGAAGAAAAGGUAGAAAAACUAGAAGGCACAUGAGGAUCACCCAUGUAAGAA [JR_Exc004_Sub1710]" label_class="Criterion not met"
seq_text="AAAAAACAUGAGGAUCACCCAUGUAAGGAUAUGCAAGCAAGAAGAAAGAACAGAAAAAGCAGAAGGUACACACA [Amethyst 73]" label_class="Criterion not met"
seq_text="AAAUUGUCAGGAUAUGUACGAACAACAAAACAAAUAACGGUACAGAAGGGACAUGAGGAUCACCCAUGUAUAAA [May 72]" label_class="Criterion met"
seq_text="AACAGUACAGGAUAUACAUGAGGAUCACCCAUGUGAAAAUUAAGUGGCGAACCACAAUGUAGAAGGGUACUGGA [Mat - Exclusion 3 - Eli mod - D47]" label_class="Criterion not met"
seq_text="AAAAAGUCAGGAUAUGUAGCAAAAGGUGAUCAAAAAAAGCUACAGAAGGGACAUGAGGAUCACCCAUGUAAAAA [Ex4: 937]" label_class="Criterion met"
seq_text="AAAAAACAUGAGGAUCACCCAUGUUAGGAUAUGCUAUGGAAAAAUAAAAUAAAACAUAGCAGAAGGGACAAAAA [Mat - Exclusion 1 - Eli mod - D28]" label_class="Criterion not met"
seq_text="AACAUGUUAGGAUAUUCAAGAAAAGAAAAGAAAGAAAAGAAGAAGAAGGAACAUGAGGAUCACCCAUGUAAGAA [EteRNA is fun!]" label_class="Criterion not met"
seq_text="AGCUAGUCAGGAUAUACGAAAAUGACAGAAGACGUAAGGGAACAUGAGGAUCACCCAUGUAGAAGGGACUAGCA [Diamond 42]" label_class="Criterion met"
seq_text="AUAAAACAUGAGGAUCACCCAUGUGAGGAUAUGCUAAAAUAAAAUAAAAUAAAAUAAUGCAGAAGGCACAAAUA [Fancy Pants]" label_class="Criterion met"
seq_text="AAACCACAUGAGGAUCACCCAUGUUAGGAUAUGCUAUGGAAAAUAAAAAUAAAACAUAGCAGAAGGGACAAAAA [Denovo 7]" label_class="Criterion not met"
seq_text="AAAGGACGAGGAUAUACAUGAGGAUCACCCAUGUAAAAAGCGUAAUAAAAGAACUUAUGUAGAAGGCGUCCAAA [Meechl Ex3 2 R2 v1]" label_class="Criterion met"
seq_text="AAAAAACAUGAGGAUCACCCAUGUAAGGAUAUGCGAAAAUAAAAUAAAAUAAAAUAAAGCAGAAGGUACAAAAA [66%, Wbt, 1]" label_class="Criterion not met"
seq_text="AGAAAUGUAGGAUAUACAUGAGGAUCACCCAUGUGGGAGGAGGAGCAAACAAGACGAGGUAGAAGGACAACGAC [JR_Exc003-Sub903]" label_class="Criterion met"

These measurements were taken from the supplement of paper PMC9170038.
